test: amyloid nucleation score (Sup35N fusion, yeast selection) (log enrichment); library NNK2; higher = more nucleation; inactive = no reads after selection;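 further: zero at mode of non-aggregating sequences after 7 days selection at 30°C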
We begin with a simple list: items and their reported amyloid nucleation score.

# SUBSTANCE, amyloid nucleation score
measured = [
    ("NPLYEGSFFWGWKFIDFRQH", 0.131),
    ("EDSPPFWGVVWPFTRNNDRK", 1.11),
    ("LCVLLHVTEKLKANSTLSCV", -0.317),
    ("HYFEIVA", -0.315),
    ("YVTCRCRYYLSFVIPIFWKR", -0.657),
    ("HLDGWRNFDYDIS", -2.3),
    ("QKTWEIANCFAELEKKIRQG", 2.4),
    ("KMTLLFARQFGV", 2.93),
    ("DVFVDMGMLTPKRCRARRGV", 0.883),
    ("ARSLTKSLARYRGRMQMTGP", 0.929),
    ("IRVICRIWCLFLSL", 0.087),
    ("HVDIRLWTFNRSRFIGVFGV", 2.75),
    ("LQVIHGSPRLRLYDYQRNNF", 7.48),
    ("FRIKAEVGPIYTYDTGSFNW", -0.162),
    ("MLYYTCTQQHTDFLRCF", -0.391),
    ("LRFYAFRLDALSLISKSGVQ", 1.08),
    ("LFARLLLHYVTS", 9.2),
    ("KDRRRVDMLRLGR", 1.36),
    ("SFNFEVEWRRASNLSFRWGR", 0.039),
    ("NPYTCMKTHYNRRNI", 3.41),
    ("WTDSHSKMRNFRPG", -0.259),
    ("WCNALFDWMLVAVCGGYYVY", -0.502),
    ("DGVSMFWMPHAKRALLYGSY", 0.063),
    ("MSVKSEAGRRSLRMNSKTSR", 0.078),
    ("NQLDTNSIMLVFLSNMMLGV", 3.81),
    ("YMKVGFARWMGRPG", 3.89),
    ("VNNGLPDCFSLRYAVHPMRL", -0.526),
    ("TCVCDIYSSTVVSFLHSNRV", 5.44),
    ("VDCGFRRLFVFTNSIYCVCR", 5.32),
    ("NNATLGQAFSRQ", 0.542),
    ("NDFFIFSQEYPYKRMFLQLL", -1.35),
    ("RLLAVPLVRFRC", -0.23),
    ("CERGLFFVMY", -1.15),
    ("CVFISLNMNKIYMLDNSGQW", 8.45),
    ("KMYYGSKNTKSDLARTYGTL", 1.61),
    ("ERNSWISLIQTF", -0.693),
    ("KVLTCRIYSIWVLIC", 0.009),
    ("PFVNVM", -0.047),
    ("RIVFHYVCTVLR", -0.964),
    ("GHPSIDAQTPV", 1.39),
    ("RGWCFWASPGRR", 0.2),
    ("WCKLDWLIWGIEQRP", 0.063),
    ("PLSGWYQYIRDGVLSVWLSV", 0.713),
]

* * *

experiment: amyloid nucleation score (Sup35N fusion, yeast selection) (log enrichment); library NNK3; higher = more nucleation; inactive = no reads after selection
MEASUREMENT KIND: amyloid nucleation score

# SUBSTANCE, MEASUREMENT KIND, REPORTED VALUE
measured = [
    ("LNPLMFKMRFLMEYNLAWGV", "amyloid nucleation score", 0.891),
    ("WLVSRIVHSLVVVIFDKDEG", "amyloid nucleation score", "inactive"),
    ("PMMWSVVVYNTNIYGLVCAM", "amyloid nucleation score", 1.26),
    ("FLNTSPYCGTL", "amyloid nucleation score", "inactive"),
    ("FFSCYVESNSVMGKDFCRVM", "amyloid nucleation score", 0.788),
    ("AWRAISDKTDGGSYDKSVIV", "amyloid nucleation score", -0.364),
    ("NILMAGDMHSRA", "amyloid nucleation score", "inactive"),
    ("SSDSVNLIRYLYVRPRFPIH", "amyloid nucleation score", "inactive"),
    ("ISWVRFRAVFWMRMFEAH", "amyloid nucleation score", -0.441),
    ("VYTRSGHV", "amyloid nucleation score", -0.112),
    ("FHSGMHCMKDFDCLPGFVGR", "amyloid nucleation score", "inactive"),
    ("TCSSINTLLKYMFLSISLFR", "amyloid nucleation score", "inactive"),
    ("GSMMLWCFIDSSWDLSLRK", "amyloid nucleation score", 0.884),
    ("YRSFSSKDVSKL", "amyloid nucleation score", "inactive"),
    ("GRIVMHVICNIFNCNYFGNS", "amyloid nucleation score", 2.94),
    ("VLHGVL", "amyloid nucleation score", "inactive"),
    ("FPMSIESDSLNSGRGLRPWG", "amyloid nucleation score", "inactive"),
    ("MTMQKSSIFFLHEAKLNFSA", "amyloid nucleation score", "inactive"),
    ("YVLRLASCSFTPVSEVHLSW", "amyloid nucleation score", "inactive"),
    ("NWRMVQNQVVWVLRLNTYHY", "amyloid nucleation score", "inactive"),
    ("MIVNNELCTNLPYLSGAVNR", "amyloid nucleation score", "inactive"),
    ("LFLSMGYLDGFYPIRSISYL", "amyloid nucleation score", "inactive"),
    ("VEQLTEDKRWRSACKQRRKV", "amyloid nucleation score", "inactive"),
    ("VAFYMMYSSGPQRTRRWVTV", "amyloid nucleation score", "inactive"),
    ("VIMVSSRDQADLCESVMQM", "amyloid nucleation score", "inactive"),
    ("NAYSSLQWREIVSHIYQSCQ", "amyloid nucleation score", "inactive"),
    ("NSMHAATWLEARRRLDKEGF", "amyloid nucleation score", -0.753),
    ("LHEENA", "amyloid nucleation score", "inactive"),
    ("CHLCGMYSVCFLARSRLVLE", "amyloid nucleation score", 0.067),
    ("CMAFLHPLF", "amyloid nucleation score", "inactive"),
    ("GSSSSVYWFLDGCDTLKRHM", "amyloid nucleation score", "inactive"),
    ("RSKLYEISRIRKMGHPHTAE", "amyloid nucleation score", "inactive"),
    ("LVDHLFDMITMHDGPCQLHQ", "amyloid nucleation score", "inactive"),
    ("RYGFCHYCYRVLDFDVDVRW", "amyloid nucleation score", 0.881),
    ("ISAGFAGNN", "amyloid nucleation score", "inactive"),
    ("CSNRFSNHFMYYVSMLGDGL", "amyloid nucleation score", "inactive"),
    ("PCRTDICR", "amyloid nucleation score", "inactive"),
    ("FRHCWRR", "amyloid nucleation score", -0.532),
    ("YQSGTLWCQCIWFKMRWRVH", "amyloid nucleation score", "inactive"),
    ("TLLFDPMLNA", "amyloid nucleation score", "inactive"),
    ("WAVCKAHDVSVDTDYYSSTG", "amyloid nucleation score", 0.302),
    ("LIVFWDGFMCT", "amyloid nucleation score", "inactive"),
    ("QYCVIMWPCIYFRVTFSF", "amyloid nucleation score", "inactive"),
    ("ILDAMDTLLRYSGCDRLSWK", "amyloid nucleation score", "inactive"),
    ("SQNAQESIPMRKFITPSRVF", "amyloid nucleation score", "inactive"),
    ("YGYVLTSTVGVILVYWSYSC", "amyloid nucleation score", "inactive"),
    ("DAIIVSIAYILG", "amyloid nucleation score", "inactive"),
    ("RITKRRHSVIPCP", "amyloid nucleation score", "inactive"),
    ("SSSKNACDPC", "amyloid nucleation score", "inactive"),
    ("PQPARLDQGGYISDMYCYVI", "amyloid nucleation score", -0.362),
    ("CIIFYCIYGFN", "amyloid nucleation score", 3.04),
]
